test: self-splicing fitness, log relative to wild type (ln ratio); higher = more splicing; Tetrahymena group I intron in knt gene, E. coli kanamycin selection, DiMSum; sequences stand for … in CUCUCU…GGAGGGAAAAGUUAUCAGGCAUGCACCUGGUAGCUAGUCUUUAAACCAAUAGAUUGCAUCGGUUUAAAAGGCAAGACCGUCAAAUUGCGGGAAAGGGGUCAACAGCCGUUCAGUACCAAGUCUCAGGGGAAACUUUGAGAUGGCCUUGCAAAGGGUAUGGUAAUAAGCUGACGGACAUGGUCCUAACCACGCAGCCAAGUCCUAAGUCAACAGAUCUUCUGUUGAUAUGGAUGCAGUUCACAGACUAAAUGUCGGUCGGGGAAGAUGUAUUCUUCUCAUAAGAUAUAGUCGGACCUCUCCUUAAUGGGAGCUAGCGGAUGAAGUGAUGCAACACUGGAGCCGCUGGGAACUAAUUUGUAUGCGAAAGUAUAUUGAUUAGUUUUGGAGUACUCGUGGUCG;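 also: selection with 25 µg/mL kanamycin versus none on LB agar overnight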
run_parameters: 37 °C
measured_metric: self-splicing fitness (ln)
Note: the reply should be a number with no unit written.

Reference set, count: 5
1) CAAAAGCAAUAUUACGCAAG :: 0.0344
2) UAGCAGCAAUAUUACGAUGG :: -0.933
3) AGGAAGCAAUAUUACGUUAU :: -1.6
4) AUCCAGCAAUAUUACGUAAC :: -1.91
5) GCCGAGCAAUAUUACGUCUU :: -1.82

For `ACAAAGCAAUAUUACGUUAU` , what is its reported self-splicing fitness (ln)?
-1.5

Fill in: self-splicing fitness (ln) of `AUCUAGCAAUAUUACGCAUC` is ___
-2.81

Name the recorded self-splicing fitness (ln) for `AACGAGCAAUAUUACGGGGA` .
-3.6

Which self-splicing fitness (ln) value is on record for `AAGGAGCAAUAUUACGUGCC` ?
-0.905

---

test: self-splicing fitness, log relative to wild type (ln ratio); higher = more splicing; Tetrahymena group I intron in knt gene, E. coli kanamycin selection, DiMSum; sequences stand for … in CUCUCU…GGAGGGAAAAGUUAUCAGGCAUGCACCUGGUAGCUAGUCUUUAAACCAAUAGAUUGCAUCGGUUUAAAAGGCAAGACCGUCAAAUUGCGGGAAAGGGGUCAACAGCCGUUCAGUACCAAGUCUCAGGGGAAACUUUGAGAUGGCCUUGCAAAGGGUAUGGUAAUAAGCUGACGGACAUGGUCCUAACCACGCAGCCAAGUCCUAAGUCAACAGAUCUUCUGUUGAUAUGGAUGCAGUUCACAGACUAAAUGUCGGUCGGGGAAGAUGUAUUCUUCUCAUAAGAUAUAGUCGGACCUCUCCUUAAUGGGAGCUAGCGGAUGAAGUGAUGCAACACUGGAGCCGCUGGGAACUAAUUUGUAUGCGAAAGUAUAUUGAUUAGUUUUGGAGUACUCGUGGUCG
run_parameters: 30 °C
measured_metric: self-splicing fitness (ln)
# answer = number (no unit)

Look over these answered cases.
1. CCGAAGCAAUAUUACGGCAA :: -3.61
2. GUUUAGCAAUAUUACGGGUG :: -2.84
3. AGAUAGCAAUAUUACGGGCA :: -1.12
4. CAAAAGCAAUAUUACGACUG :: -0.738
5. CUAGAGCAAUAUUACGUUAG :: -1.27

Please give the measured self-splicing fitness (ln) for this sequence: `UCCCAGCAAUAUUACGGGAG`
-3.44

Fill in the blank: the reported self-splicing fitness (ln) of `CUAUAGCAAUAUUACGUUAG` is ____.
-2.54

Any idea what its self-splicing fitness (ln) is? The sequence is `ACACAGCAAUAUUACGUCUC`
-3.26
